Values compiled from ChEMBL document CHEMBL6182839.

assay info: Selectivity ratio of IC50 for HEK cells to IC50 for human HepG2 cells
Format: toxicity
condition notes: HEK cells versus HepG2 cells, read-out: Ratio IC50
outcome measure: selectivity ratio

Query block: Any idea what its selectivity ratio is? The compound is O=C(/C=C/c1nc(-c2ccc(Cl)cc2)n2ccccc12)c1ccc(Cl)c(Cl)c1
Result block: 13

Others:
Query block: selectivity ratio lookup needed for COc1cc(C(=O)/C=C/c2nc(-c3ccc(Cl)cc3)n3ccccc23)cc(OC)c1OC , thanks.
Result block: 2

---

Tested on: HepG2
assay info: Cytotoxicity against human HepG2 cells assessed as inhibition of cell growth incubated for 48 hrs by MTT assay
Assay type: functional, cell-based
condition notes: HepG2, 48 h
Recorded IC50 for the following compounds

Query block: Suppose we examine the compound COc1cc(C(=O)/C=C/c2nc(-c3ccccc3)n3ccccc23)cc(OC)c1OC ; what IC50 value has been reported?
Result block: 13.6 µM

Further cases:
Query block: For the compound O=C(/C=C/c1nc(-c2ccc(Cl)cc2)n2ccccc12)c1ccc(F)c(F)c1 , what IC50 is on record?
Result block: > 50 µM

Query block: Could you tell me which IC50 is on file for COc1ccc(-c2nc(/C=C/C(=O)c3ccc(Cl)c(Cl)c3)c3ccccn23)cc1 ?
Result block: > 50 µM
